assay: Oral bioavailability in Sprague-Dawley rat at 5 mg/kg, po; type: ADME, organism-based; settings: in vivo
REPORTED_PROPERTY: bioavailability

q: Any idea what bioavailability was measured for "CN1CCN(C(=O)c2cc(Oc3ccc(Cl)cc3)c3c(c2)c2ccccc2n3CC2CCNCC2)CC1" ?
a: 0%

q: Any idea what bioavailability was measured for "CN1CCN(C(=O)c2cc(Oc3ccc(Cl)cc3)c3c(c2)c2ccccc2n3C[C@@H]2CCN(C)C[C@@H]2F)CC1" ?
a: 19%

---

test: Ratio of drug level in […] plasma in Sprague-Dawley rat at 1 mg/kg, iv after 5 mins; format: ADME, organism-based; set-up: dose 1 mg/kg, route intravenous
REPORTED_PROPERTY: blood plasma ratio at 5 min
Respond with the number and no other words.

q: Any idea what blood plasma ratio at 5 min was measured for "CN1CCN(C(=O)c2cc(Oc3ccc(Cl)cc3)c3c(c2)c2ccccc2n3C[C@@H]2CCN(C)C[C@H]2F)CC1" ?
a: 8.2

q: Any idea what blood plasma ratio at 5 min was measured for "CN1CCN(C(=O)c2cc(Oc3ccc(Cl)cc3)c3c(c2)c2ccccc2n3C[C@@H]2CCN(C)C[C@@H]2F)CC1" ?
a: 4.2

q: Any idea what blood plasma ratio at 5 min was measured for "CN1CCC(Cn2c3ccccc3c3cc(C(=O)N4CCN(C)CC4)cc(Oc4ccc(Cl)cc4)c32)CC1" ?
a: 0.8

This collection of values is drawn from ChEMBL document CHEMBL1138429.
